pull-down binding Z-score values by entry
Test system: TO-N3-2 (biotin conjugate)
Assay Overview: pull-down binding Z-score (relative to library population); higher = stronger binding
Applied Conditions: RNA library: Library-2
Simply state the number, no unit and no words.

Some sequences with known pull-down binding Z-score results, for comparison:
AGUCCUGUAAUUAGAUCUCAGGACU [hsa-mir-625] : -0.88
GUUCUUGAGUGUAAUGUGAAAACUACCGAAGUUGUAGGAGACAUUAUACUUAAACCAGC : 0.162
GGCGGGCGGCGGUGCCCGUC [hsa-mir-4449] : 0.91

Inquiry: API: value(readout=pull-down binding Z-score, system=TO-N3-2 (biotin conjugate)) for record AUGUGAUGUGAGCAGAUGGUUCUCACU [hsa-mir-6758]
Reply text: 0.176

Inquiry: Follow-up entry: CAGACGGCUUUCUCUCCGAAUGUCUG [hsa-mir-2276]
Reply text: -0.639

Inquiry: Now the sequence "GCGCUACUGCAACGAUACCGAUACAAGCCUCACUCCCUUUCGGAUGGCUUAUUGUUGGCGUUGCACUUCUUGCUGUUUUUCAGAGCGC"
Reply text: 0.285

Inquiry: Next: "GUUGAUGAGCCUGAAGAACAUGUCCAAAUUCACACAAUCGACGGUUCAUCCGGAGUUGUUAAUCCAGUAAUGGAACCAAUUUAUGAUGAACCGACGACGAC"
Reply text: 0.77

Inquiry: Ok, now CUUCUGCUUCCUCUUAGCGCAGGAG [hsa-mir-1914]
Reply text: -0.409

Inquiry: Moving on to "AUCACUAGGUUUCAAACUUUACUUGCUUUACAUAGAAGUUAUUUGACUCCUGGUGAU"
Reply text: -1.03

Inquiry: Try CAGGGCGGUGCGGCAGCCGCCACC [hsa-mir-3621] next.
Reply text: 1.24

Inquiry: Would you kindly repeat that for UGCUGAUGUCAUCAGUCAUAACUUCUGCG [hsa-mir-6854] ?
Reply text: 0.366

Inquiry: What about this sequence? "CUGUUUUUCAG"
Reply text: -1.53

Inquiry: Same question for UCGCCUAGGGCUCUGAGCAGGGCA [hsa-mir-211] please.
Reply text: 1.47

Inquiry: Further, for AGCCCUGUUGUUGUAAGAUAGUGU [hsa-mir-550a-1] ?
Reply text: 0.346

Inquiry: Also check AAAAUUCAUGGCCUACAGCUGCCUCUUGCCAAACUGCACUGGAUUUU [hsa-mir-5010]
Reply text: 0.111
